The measured values listed here are drawn from ChEMBL document CHEMBL1201862.

GI50 by entry:
system: SW-620; experiment: NCI tumour cell line growth inhibition, 48 h
Activity calls are given as the source filed them. Cut-off read from the data, not from the text of the source: active = GI50 up to about 1.1 µM and inactive = higher.
OBSERVED_PROPERTY: GI50

# COMPOUND, OBSERVED_PROPERTY, RESULT
records = [
    ("Clc1ccc2[nH]c(CCSCCc3nc4ccc(Cl)cc4[nH]3)nc2c1", "GI50", "14 µM (inactive)"),
    ("COP(=O)(OC)C(C)(C)NC(=O)NC(F)(F)F", "GI50", "> 100 µM (inactive)"),
    ("COc1ccc(-c2c3c(cc4cc5c(cc24)OCO5)C(=O)OC3)cc1OC", "GI50", "2.19 µM (inactive)"),
    ("COC(=O)C(Cc1ccccc1I)C1=CCC2(CC1)OCCO2 (configuration not stated)", "GI50", "44.4 µM (inactive)"),
    ("CC1=CC[C@@H]2[C@@H](CC[C@@]2(C)O)C(C)(C)[C@H]1CC[C@@H]1[C@@]2(C)CCC(=O)C(C)(C)O[C@@H]2CC[C@]1(C)O", "GI50", "32.7 µM (inactive)"),
    ("C1CCCCC2(CCCCCCCCC3(CCC1)OCCO3)OCCO2", "GI50", "> 100 µM (inactive)"),
    ("CN(C)CCCNc1ccc2nnn3c4ccc(OC(=O)c5ccccc5)cc4c(=O)c1c23", "GI50", "4.53 µM (inactive)"),
]

====

system: NCI-H460; assay: NCI tumour cell line growth inhibition, 48 h
Activity calls are given as the source filed them. No stated cut-off is given here; in the data, active = GI50 up to about 1.1 µM and inactive = higher. Numbered stars: 1 amine (or outer) side, 2 acyl side, 3 side chain; on linkers, the order of the positions; unused ones are H or OH. Bridge positions count the residues as written; N and C are the ends. Square brackets hold non-standard residues; d marks the D form. Peptide text beside a SMILES is read from it. I, II: the chains in the order shown. Actinocin(9to1) = Cc1c2oc3c(C)ccc(C(=O)[*:1])c3nc-2c(C(=O)[*:2])c(N)c1=O; NMeH = CN[CH](Cc1c[nH]cn1)C(=O)O; Sar = CNCC(=O)O
Labels: active, inactive

# COMPOUND, GROUP_LABEL
data = [
    ("Cc1cc(O)nc(NNC(C#N)c2cccc([N+](=O)[O-])c2)n1 (stereo not drawn)", "inactive"),
    ("CNC1Cc2c[nH]c3cccc(c23)C12C=C(C)C(=O)O2 (stereo not drawn)", "inactive"),
    ("COc1c(C)n(CCO)ccc1=O", "inactive"),
    ("O=CC[C@H]1C(=O)C[C@@H]2CCC[C@@H]21", "inactive"),
    ("NC(=O)c1cc(N(CCO)CCO)c([N+](=O)[O-])cc1[N+](=O)[O-]", "inactive"),
    ("O=C1/C(=C/c2ccc(Cl)cc2)COc2ccc(Br)cc21", "inactive"),
    ("O=C1C=C[C@@H](COC2OC(CO)C(O)C(O)C2O)O1 (stereo partly drawn)", "inactive"),
    ("C=CC/N=C1\\N=C(C)C(C(=O)OCC)S1 (stereo not drawn)", "inactive"),
    ("O=C1/C(=C/c2ccccc2)N=C(c2ccccc2)N1C1Nc2cc3c(cc2S1)NC(N1C(=O)/C(=C/c2ccccc2)N=C1c1ccccc1)S3 (stereo not drawn)", "inactive"),
    ("COc1cc(CCNC2=CC(=O)c3cccnc3C2=O)ccc1O", "active"),
    ("Cc1c2oc3c(C)ccc(C(=O)NC4C(=O)NC(C(C)C)C(=O)N5CCCC5C(=O)N(C)CC(=O)N(C)C(Cc5cnc[nH]5)C(=O)OC4C)c3nc-2c(C(=O)NC2C(=O)NC(C(C)C)C(=O)N3CCCC3C(=O)N(C)CC(=O)N(C)C(Cc3cnc[nH]3)C(=O)OC2C)c(N)c1=O (stereo not drawn) (I: TVP[Sar][NMeH] / II: TVP[Sar][NMeH]; ester I:1-I:C, II:1-II:C; linker I:N-II:N via Actinocin(9to1); configuration not given here)", "inactive"),
    ("CNc1nc(SC)nc2c1c(N)nn2C", "inactive"),
    ("CCOC1c2cc(C(C)C)c(O)c(O)c2[C@@]23CCCC(C)(C)C2C1OC3=O (stereo partly drawn)", "inactive"),
    ("O=C1C2=C(c3ccccc31)C(c1ccc([N+](=O)[O-])cc1)NC(S)=N2 (stereo not drawn)", "inactive"),
    ("O=c1c2c(sc3ccccc13)NCN(CCc1ccccc1)C2", "inactive"),
    ("O=C(c1ccc(Cl)cc1)N1CCN=C1c1cc2ccccc2c2ccccc12", "inactive"),
    ("O=C(O)/C(=C/C(=O)c1ccc(Cl)cc1)NNc1ccc([N+](=O)[O-])cc1[N+](=O)[O-]", "inactive"),
    ("O=C(CC(=O)N1N=C(N2CCCCC2)CC1c1ccccc1)Nc1ccccc1 (stereo not drawn)", "inactive"),
]

====

test system: HOP-62; assay: NCI tumour cell line growth inhibition, 48 h
The source made the active and inactive calls. No stated cut-off is given here; in the data, active = GI50 up to about 1.1 µM and inactive = higher.
GI50 by entry:
OBSERVED_PROPERTY: GI50

# COMPOUND, TARGET_UNDER_TEST, RESULT
records = [
    ("CCOc1ccccc1/N=N/c1ccc2oc(=O)c(C(C)=O)cc2c1", "HOP-62", "> 100 µM (inactive)"),
    ("CN1C=COC1N=C1CCCCC1 (stereo not given)", "HOP-62", "> 100 µM (inactive)"),
    ("O=c1cc(NNc2cccc3ccccc23)[nH]c(=O)[nH]1", "HOP-62", "17 µM (inactive)"),
    ("O=C(O)/C(=C/C(=O)c1ccc(Cl)cc1)NNc1ccc([N+](=O)[O-])cc1[N+](=O)[O-]", "HOP-62", "28.4 µM (inactive)"),
    ("COc1c(C)c(C/C=C(\\C)CCCCO)c(OC)c(OC)c1OC", "HOP-62", "> 100 µM (inactive)"),
    ("C=C(C1=CC(=O)C(C)(C)O1)[C@@H]1CC=C([C@@H]2CC[C@H]3[C@@]2(C)CC[C@H]2C(C)(C)C(=O)[C@H](OC(=O)CC(C)(O)CC(=O)O)C[C@]32C)[C@H](O)O1 (stereo not given in full)", "HOP-62", "21.1 µM (inactive)"),
    ("CNc1nc(SC)nc2c1c(N)nn2C", "HOP-62", "> 100 µM (inactive)"),
    ("COC(=O)C1CCc2nnc(-c3cccnc3)n21 (stereo not given)", "HOP-62", "> 100 µM (inactive)"),
    ("Cc1cc(N2CCCCC2)nc2ccc(Cc3ccc4nc(N5CCCCC5)cc(C)c4c3)cc12", "HOP-62", "> 100 µM (inactive)"),
    ("COP(=O)(OC)C(N)CCSC (stereo not given)", "HOP-62", "> 100 µM (inactive)"),
]

====

test system: SK-MEL-5; assay: NCI tumour cell line growth inhibition, 48 h
Calls of active or inactive are those of the source. Rule as the data show it: active = GI50 up to about 1.1 µM and inactive = higher.
Labels: yes for active, no for inactive

# MOLECULE, GROUP_LABEL
records = [
    ("COc1cc2c(cc1OC)C13CC[N+]4(C)CC5=CCOC6CC(=O)N2C1C6C5CC34[O-] (stereo unspecified)", "no"),
    ("CN1C=COC1N=C1CCCCC1 (stereo unspecified)", "no"),
    ("Cn1cc(C(=O)/C(Cl)=C(\\Cl)C(=O)O)c2ccccc21", "no"),
    ("COc1c(C)n(CCO)ccc1=O", "no"),
    ("COc1c(O)ccc2c1CN1CCc3cc4c(cc3C1C2)OCO4 (stereo unspecified)", "no"),
    ("Nc1nc(Cl)cc(NCC2(CO)CC(Cc3ccccc3)C2)n1 (stereo unspecified)", "yes"),
    ("O=C1c2ccccc2C(=O)N1[C@@H](Cc1ccccc1)C(=O)n1cccc1CO", "no"),
    ("O=C1CCCc2ccc3c(c21)CC1(Cc2cc4c(cc2C1)CCCC4)C3", "no"),
    ("O=c1c2c(sc3ccccc13)NCN(CCc1ccccc1)C2", "no"),
    ("CC(=O)OCCOc1cc2c([nH]c3ccccc32)c(C)c2cccc1-2", "no"),
    ("CC(C)C1=CC23CCC4C(C)(C(=O)O)CCCC4(C)C2CC1C1C(=O)N(c2ccc(N4C(=O)C5C6CC7C8(C)CCCC(C)(C(=O)O)C8CCC7(C=C6C(C)C)C5C4=O)cc2)C(=O)C13 (stereo unspecified)", "no"),
    ("CC(C)(C)OC(=O)N(CCCN)CCCCN", "no"),
    ("C=C(C(=O)OC)[C@H]1CC/C(C)=C/CC[C@@](C)(O)C=CC[C@@]2(C)O[C@@H]2C1", "yes"),
    ("[O-][Cl+3]([O-])([O-])[O-].c1ccc(-c2[o+]c(-c3ccccc3)c(-c3ccccc3)c(-c3ccccc3)c2-c2ccccc2)cc1", "no"),
    ("CC(=O)Nc1cc2c(cc1O)CC[C@@H]1[C@@H]2CC[C@]2(C)[C@@H](O)CC[C@@H]12", "no"),
    ("C#C[C@]1(O)[C@@H](CO)O[C@@H](n2ccc(=O)[nH]c2=O)[C@@H]1O", "yes"),
    ("O=C(CSc1nc2ccccc2c2ccccc12)c1ccccc1", "no"),
    ("Cc1cccc(N(C(=O)Nc2ccc(Cl)c(Cl)c2)C2=NCC(C)S2)c1 (stereo unspecified)", "no"),
    ("O=CC[C@H]1C(=O)C[C@@H]2CCC[C@@H]21", "no"),
    ("Cc1ccc(CC(C)N)cc1 (stereo unspecified)", "no"),
    ("C[N+](C)(C)C1=NNC2=Nc3ccccc3SC2=C1", "no"),
]
